# TESTED_ON: Dopamine, D2s (Human Recombinant) (Homo sapiens, UniProt P14416)
# Construct: expressed in transfected cells; host or cells: A9L cells (membranes)
# Sequence (P14416 1-414 isoform P14416-2): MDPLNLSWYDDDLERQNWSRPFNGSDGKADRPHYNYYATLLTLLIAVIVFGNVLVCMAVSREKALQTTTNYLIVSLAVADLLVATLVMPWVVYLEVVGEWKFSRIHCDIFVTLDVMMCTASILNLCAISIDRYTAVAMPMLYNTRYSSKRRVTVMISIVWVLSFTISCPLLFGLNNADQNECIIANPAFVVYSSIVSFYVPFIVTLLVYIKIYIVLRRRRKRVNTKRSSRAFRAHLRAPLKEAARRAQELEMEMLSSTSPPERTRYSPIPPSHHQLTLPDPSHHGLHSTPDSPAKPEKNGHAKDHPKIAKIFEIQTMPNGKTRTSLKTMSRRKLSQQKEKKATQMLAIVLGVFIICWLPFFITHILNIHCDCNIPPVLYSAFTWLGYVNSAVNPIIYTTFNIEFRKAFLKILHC
# PROCEDURE_SUMMARY: dopamine D2 receptor binding assay, [3H]spiperone, human recombinant (A9L cells)
# MEASUREMENT_PARAMETERS: 1 h, concentration 3.0E-7, average, N = 2, read-out: % Specific Binding
# Protocol: Following incubation, the membranes were rapidly filtered under vacuum through GF/B glass fiber filters (Packard). The filters were then washed several times with an ice-cold buffer using a Packard cell harvester. Bound radioactivity was measured with a scintillation counter (Topcount, Packard) using a liquid scintillation cocktail (Microscint 0, Packard). […] Results are expressed as a percent of control specific binding obtained in the presence of the test compounds. […]
// activity at 0.3 µM lookup, one value per entry

COMPOUND | OUTPUT_UNIT | activity at 0.3 µM
COc1ccc(CN2CCC(c3nc(-c4ccccc4C)no3)CC2)cc1 [Compound 5d] | % | 117
Clc1ccc(CN2CCC(c3nc(-c4cccs4)no3)CC2)cc1 [Compound 5b] | % | 116
Clc1cccc(CN2CCC(c3nc(-c4cccs4)no3)CC2)c1 [Compound 5c] | % | 94.6
Cc1ccc(-c2noc(C3CCN(Cc4ccc(Cl)c(Cl)c4)CC3)n2)cc1 [Compound 5a] | % | 101

Where do the numbers come from? From patent US6107313A.
